# Target System: Nuclear receptor subfamily 0 group B member 1 (Homo sapiens)
# Method Notes: DAX1 (NR0B1) inhibitors, primary screen, cell-based, HEK293, Gal4-DAX1, luciferase luminescence (AID 504766);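 note: 0% = DAX1-transfected cells with DMSO and 100% = empty-vector control cells with DMSO; inhibition shows as a rise in luminescence from relieved DAX1 repression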
# Experimental Context: HEK293 Gal4-DAX1 luciferase reporter, at 6.75 µM, stronger effect = higher value
Among all 340,000 compounds or so, about 3,400 (1%) were called active. Many of the other results were omitted from the sample, so actives are more common in it than they were.
Measurement Label: inhibition (%)
Express it in %; write the number only.

{"Molecule": "C[C@H]1Cn2cnc(C(=O)N[C@H](C)c3ccccc3)c2C(=O)N1", "Target System": "Nuclear receptor subfamily 0 group B member 1 (Homo sapiens)", "inhibition [%]": 1.52}
{"Molecule": "COc1ccc(C2Nc3ccccc3C(=O)N2c2ccc(F)cc2)cc1Cn1nnc2ccccc21 (stereo not drawn)", "Target System": "Nuclear receptor subfamily 0 group B member 1 (Homo sapiens)", "inhibition [%]": -0.72}
{"Molecule": "CC(=O)Nc1cccc(-c2csc(Nc3cccc(C)n3)n2)c1", "Target System": "Nuclear receptor subfamily 0 group B member 1 (Homo sapiens)", "inhibition [%]": 4.29}
{"Molecule": "COc1ccccc1C(=O)Nc1ccc(NC(=O)c2ccco2)c(C)c1", "Target System": "Nuclear receptor subfamily 0 group B member 1 (Homo sapiens)", "inhibition [%]": -0.21}

Record summary for COC(=O)c1c(NC(=O)CSc2nncs2)sc2c1CCCCC2 : reported inhibition = -1.11

* * *

Quick list: inhibition per entry.
# Target System: Nuclear receptor subfamily 0 group B member 1 (Homo sapiens)
# Method Notes: DAX1 (NR0B1) inhibitors, primary screen, cell-based, HEK293, Gal4-DAX1, luciferase luminescence (AID 504766);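 note: 0% = DAX1-transfected cells with DMSO and 100% = empty-vector control cells with DMSO; inhibition shows as a rise in luminescence from relieved DAX1 repression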
# Experimental Context: HEK293 Gal4-DAX1 luciferase reporter, at 6.75 µM, stronger effect = higher value
In all, about 340,000 compounds went through this assay and about 3,400 (1%) were called active. Only a selection was taken, and actives are over-represented in it overall.
Express it in %; write the number only.

For orientation, consider the following solved cases.
{"Compound": "Cc1cc(OCc2cc(C(=O)NCc3cc(C(C)C)no3)no2)cc(C)c1Cl", "inhibition [%]": 7.06}
{"Compound": "Cc1cccnc1CC(C)NC(=O)c1cc(COc2cncc(Cl)c2)on1 (stereo not given)", "inhibition [%]": 0.03}
{"Compound": "COc1ccc(OCc2cc(C(=O)NCC3(C)COC3)no2)c(Cl)c1", "inhibition [%]": 0.65}
{"Compound": "C#CCN(C[C@H]1[C@H](OC(=O)NC2CCCC2)[C@H](OC(=O)NC2CCCC2)C[C@H]2C(=O)N(c3ccccc3)C(=O)[C@@H]12)S(=O)(=O)c1ccc(C)cc1", "inhibition [%]": -0.02}
{"Compound": "CNC(=O)c1ccc(CN(C)C(=O)c2cc(C3CC3)nc3c2cnn3C(C)C)cc1", "inhibition [%]": 0.25}
{"Compound": "COc1ccc(C=C2CCC3C(CCCC34OCCO4)C2=O)cc1 (stereo not given)", "inhibition [%]": 1.37}
{"Compound": "C=CCN1CCN(c2ccncc2S(=O)(=O)N2CCN(C)CC2)CC1", "inhibition [%]": 1.7}
{"Compound": "Cc1ccc(NC(=O)c2sccc2C)cc1[N+](=O)[O-]", "inhibition [%]": 5.25}
{"Compound": "COCC1CCCCN1C(=O)c1cc(COc2ccc(C)c(C)c2)on1 (stereo not given)", "inhibition [%]": 2.51}

Kindly review the next compound as well.
Record summary for COc1cccc(/C=C2\SC(=S)N(CCCC(=O)N3CCOCC3)C2=O)c1 : reported inhibition = -0.53

Reference source: PubChem BioAssay AID504766
